These entries and their values trace back to patent US20250011418A1.

# measured target: T1, Sec8-His (section 8 (Sec8), an antigenic region of CSP-1, tagged with a polyhistidine (His) tag)
# T1 construct: also called Sec8-His antigen
# T1 chain: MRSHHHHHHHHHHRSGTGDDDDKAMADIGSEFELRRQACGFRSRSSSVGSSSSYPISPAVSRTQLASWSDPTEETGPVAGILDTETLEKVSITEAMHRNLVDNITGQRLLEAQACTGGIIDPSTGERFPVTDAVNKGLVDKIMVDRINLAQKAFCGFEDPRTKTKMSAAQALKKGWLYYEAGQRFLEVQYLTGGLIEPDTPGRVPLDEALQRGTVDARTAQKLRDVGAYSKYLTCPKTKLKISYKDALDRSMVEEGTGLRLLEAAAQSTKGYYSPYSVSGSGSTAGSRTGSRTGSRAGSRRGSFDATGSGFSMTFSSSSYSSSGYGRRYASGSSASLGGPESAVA
# experiment summary: BLI (Octet), single shot: antibody on anti-human IgG tips, 24 nM Sec8-His
readout name: binding result

humanized anti-CSP-1 antibody, Antibody Number 15 (Table 1) (antibody, human IgG1, V domains shown, also called Antibody 15) VH: QIQLVQSGPGLKQPGGSVRISCAASGYTFTDYSMHWVKQAPGKGLKWMGWINTETGEPTYADDFKGRFTFSLDTSKSTAYLQINSLRAEDTATYFCAPGGFAYWGQGTLVTVSS VL: DIVMTQSAPSLPVTPGQSVSISCRSSKSLLHSNGNTYLYWFLQKPGQSPQLLIYRMSNRASGVPDRFSGSGSGTDFTLKISRVEAEDVGVYYCMQHLEYPLTFGQGTKLEIK: binds
